EXPERIMENTAL TARGET: human ether-à-go-go-related gene (hERG) potassium channel (human, UniProt Q12809);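 also: peak tail current of the secondary pulse compared with the same well before compound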
Sequence (Q12809 whole entry, looked up): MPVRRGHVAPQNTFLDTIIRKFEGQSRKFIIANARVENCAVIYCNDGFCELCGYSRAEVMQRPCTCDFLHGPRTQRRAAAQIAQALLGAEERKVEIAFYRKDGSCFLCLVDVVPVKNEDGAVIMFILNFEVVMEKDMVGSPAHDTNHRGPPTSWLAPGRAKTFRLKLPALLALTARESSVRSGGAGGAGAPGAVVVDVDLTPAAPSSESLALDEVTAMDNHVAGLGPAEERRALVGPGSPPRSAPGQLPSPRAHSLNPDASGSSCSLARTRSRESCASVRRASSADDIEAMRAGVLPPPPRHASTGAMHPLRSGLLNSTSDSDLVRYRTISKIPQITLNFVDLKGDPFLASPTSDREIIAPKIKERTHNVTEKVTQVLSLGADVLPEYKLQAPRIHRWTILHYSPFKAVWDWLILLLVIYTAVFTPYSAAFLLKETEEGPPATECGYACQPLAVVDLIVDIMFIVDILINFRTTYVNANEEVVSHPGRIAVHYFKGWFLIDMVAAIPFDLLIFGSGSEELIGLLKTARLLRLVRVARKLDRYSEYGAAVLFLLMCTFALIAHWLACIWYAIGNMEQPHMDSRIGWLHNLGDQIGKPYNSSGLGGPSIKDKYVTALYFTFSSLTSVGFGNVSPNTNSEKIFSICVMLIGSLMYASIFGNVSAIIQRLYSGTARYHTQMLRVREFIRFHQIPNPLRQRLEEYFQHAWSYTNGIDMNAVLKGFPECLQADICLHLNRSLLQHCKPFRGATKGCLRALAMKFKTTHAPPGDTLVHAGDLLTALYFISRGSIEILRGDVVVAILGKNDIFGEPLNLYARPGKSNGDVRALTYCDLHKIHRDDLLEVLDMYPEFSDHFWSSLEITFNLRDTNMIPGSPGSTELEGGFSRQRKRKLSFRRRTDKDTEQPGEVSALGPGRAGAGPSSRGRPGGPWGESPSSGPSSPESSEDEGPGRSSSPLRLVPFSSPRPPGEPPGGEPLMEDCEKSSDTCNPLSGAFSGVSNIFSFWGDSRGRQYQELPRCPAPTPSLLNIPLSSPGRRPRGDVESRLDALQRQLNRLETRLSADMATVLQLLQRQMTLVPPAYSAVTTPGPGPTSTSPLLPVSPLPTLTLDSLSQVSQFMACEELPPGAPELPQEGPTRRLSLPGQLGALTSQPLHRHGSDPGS
PROCEDURE TEXT: primary screen, population patch clamp on CHO cells stably expressing hERG; higher = less effect of the substance
The campaign covered roughly 310,000 compounds. About 14,000 (4.5%) showed an effect of 50% or more. Effects have a minus sign here. The full list was thinned out, with strong results kept by preference.
I would appreciate it if you labelled entries 1 when hERG current change (%, negative = inhibition) at 10uM is -10% or higher, otherwise -1.

Example cases with answers are listed next.
{"SMILES STR": "CN(C)c1ccc(/C=N/NC(=O)c2ccco2)cc1", "CATEGORY": 1}
{"SMILES STR": "COc1ccc(/C=C/C(=O)C2CC2)cc1Cn1nc(C)c([N+](=O)[O-])c1C", "CATEGORY": -1}
{"SMILES STR": "CC(C)c1cc(N2CCN(C(=O)c3ccco3)CC2)n2c(nc3ccccc32)c1C#N", "CATEGORY": -1}
{"SMILES STR": "Cc1ccc(CN2CCN(CC(=O)N/N=C/c3ccc(C)o3)CC2)cc1", "CATEGORY": -1}
{"SMILES STR": "Cc1ccc(/C=N/NC(=O)CN2CCN(Cc3ccccc3Cl)CC2)o1", "CATEGORY": -1}

Turning to the following compound.
Prompt: Hi team, for `CSc1ccc(/C=N/N2CCN(Cc3ccccc3)CC2)cc1` , is the recorded hERG current change (%, negative = inhibition) at 10uM at or above -10%?
Response: 1
